Exercise: state measured melting point for each of the molecules provided.
Numbers only, in °C.

Reference set (5 entries):
compound structure string	observed result
CC(C)(C)c1nc2cc(S(=O)(=O)c3ccc(S(C)(=O)=O)cn3)ccc2n1CC1CCOCC1	183
CC(=O)NCc1ccc(S(=O)(=O)c2ccc3c(c2)nc(C(C)(C)C)n3CC2CCOCC2)cn1	199.4
CC(=O)c1ccc(S(=O)(=O)c2ccc3c(c2)nc(C(C)(C)C)n3CC2CCOCC2)cn1	162
CC(=O)N1CCC(Cn2c(C(C)(C)C)nc3cc(S(=O)(=O)c4ccc(C#N)s4)ccc32)CC1	181.2
CC(C)(C)CCn1c(C(C)(C)C)nc2cc(S(=O)(=O)c3ccnc(F)c3)ccc21	131.5

Hi, could you look up melting point for each item in my list?
1. Cc1nccc(S(=O)(=O)c2ccc3c(c2)nc(C(C)(C)C)n3CC2CCOCC2)n1
2. CC(C)(C)c1nc2cc(S(=O)(=O)c3ccn(CC(F)(F)F)c(=O)c3)ccc2n1CC1CCOCC1

1: 179.7; 2: 152.9
